Procedure text: Lipophilicity, logD of compound in 1-octanol/PBS at pH 7.4 incubated for 24 hrs by HPLC analysis
Assay type: physicochemical
One threshold, 2, splits the recorded logD at 24 h values: lower ones are T, equal or higher ones are F.

Qu. Please check: logD at 24 h for COc1cncc(-c2cn(C(C)c3ccc(N4CCC[C@@H](NCC5CCC5)C4)cn3)nn2)c1 (stereo not given in full) , strictly under 2 or not?
Ans. T

Qu. Please check: logD at 24 h for COc1cc(-c2cn(Cc3ccc(N4CCC[C@@H](N(C)CC5CCC5)C4)nn3)nn2)c2cn[nH]c2c1 , strictly under 2 or not?
Ans. F

Qu. Please check: logD at 24 h for COc1cncc(-c2ncn(C(C)n3ccc(N4CCC[C@@H](NCC5CCC5)C4)cc3=O)n2)c1 (stereo not given in full) , strictly under 2 or not?
Ans. T

Qu. Please check: logD at 24 h for COc1cncc(-c2cn(Cc3ccc(N4CCCC(NCC5CCC5)C4=O)nn3)nn2)c1 (stereo not given) , strictly under 2 or not?
Ans. T

Qu. Please check: logD at 24 h for COc1cc(-c2cn(Cc3ccc(N4CCC[C@@H](NC5CCCC5)C4)nn3)nn2)c2cn[nH]c2c1 , strictly under 2 or not?
Ans. T

* * *

Tested on: Kasumi 1
Procedure text: Antiproliferative activity against human Kasumi 1 cells assessed as inhibition of cell viability incubated for 72 hrs by ATPlite assay
Type: functional, cell-based
Experimental context: Kasumi 1, 72 h
Property: pIC50
pIC50 (log units): -log10 of the concentration in mol/L.

Record summary for COc1cncc(-c2cn(C(C)(C)c3ccc(N4CCC[C@@H](NCC5CCC5)C4)nn3)nn2)c1 : reported pIC50 = 5.68

Record summary for COc1cc(-c2cn(Cc3ccc(N4CCC(NCC5CCC5)C4)nn3)nn2)c2cn[nH]c2c1 (centres undefined) : reported pIC50 = 4.82

Record summary for COc1cncc(-c2cn(Cc3ccc(N4CCC[C@@H](NCC5CCC5)C4)nc3)nn2)c1 : reported pIC50 = 5.92

Record summary for COc1cc(-c2cn(Cc3ccc(N4CCC[C@@H](NC5CCC5)C4)nn3)nn2)c2cn[nH]c2c1 : reported pIC50 = 5.56

Record summary for COc1cncc(-n2cc(C(C)n3ccc(N4CCC[C@@H](NCC5CCC5)C4)cc3=O)nn2)c1 (some centres undefined) : reported pIC50 = 5.71

Record summary for COc1cncc(-c2cn(C(C)c3ccc(N4CCC[C@@H](NCC5CCC5)C4)nn3)nn2)c1 (some centres undefined) : reported pIC50 = 6.04

Record summary for COc1cncc(-c2cn([C@H](C)n3ccc(N4CCC[C@@H](NCC5CCC5)C4)cc3=O)nn2)c1 : reported pIC50 = 6.31

Record summary for CC(n1cc(-c2cccnc2)nn1)n1ccc(N2CCC[C@@H](NCC3CCC3)C2)cc1=O (some centres undefined) : reported pIC50 = 5.09

* * *

Procedure text: Lipophilicity, logD of compound in 1-octanol/PBS at pH 7.4 incubated for 24 hrs by HPLC analysis
Assay type: physicochemical
Would you mind telling me the reported logD at 24 h of each entry?
Please give only the number in your answer, with no unit.

Record summary for COc1cncc(-n2cc(C(C)n3ccc(N4CCC[C@@H](NCC5CCC5)C4)cc3=O)nn2)c1 (stereo partly drawn) : reported logD at 24 h = 1.12

Record summary for COc1cncc(-c2cn(Cc3ccc(N4CC5(CCCC5NCC5CCC5)C4)nn3)nn2)c1 (stereo not drawn) : reported logD at 24 h = 1.85

Record summary for COc1cncc(-c2cn(C(C)(C)c3ccc(N4CCC[C@@H](NCC5CCC5)C4)nn3)nn2)c1 : reported logD at 24 h = 1.69

Record summary for C[C@@H](n1cc(-c2cncc(N3CCCC3)n2)nn1)n1ccc(N2CCC[C@@H](NCC3CC3)C2)cc1=O : reported logD at 24 h = 1.6

Record summary for C[C@@H](n1cc(-c2cncc(N(C)C)c2)nn1)n1ccc(N2CCC[C@@H](NCC3CC3)C2)cc1=O : reported logD at 24 h = 1.16

Record summary for O=C(NCc1ccc2cc(CNCC3CCC3)[nH]c2c1)c1cc(=O)n2ccccc2n1 : reported logD at 24 h = 1.9

Record summary for COc1cncc(-c2cn(C(C)n3ccc(N4CCC[C@@H](NCC5CCC5)C4)cc3=O)nn2)n1 (stereo partly drawn) : reported logD at 24 h = 1.65

Record summary for COc1cncc(-c2cnn(C(C)n3ccc(N4CCC[C@@H](NCC5CCC5)C4)cc3=O)n2)c1 (stereo partly drawn) : reported logD at 24 h = 1.84

Record summary for COc1cncc(-c2cn(C3(c4ccc(N5CCC[C@@H](NCC6CCC6)C5)nn4)CC3)nn2)c1 : reported logD at 24 h = 1.7

Record summary for CCC(c1ccc(N2CCC[C@@H](NCC3CCC3)C2)nn1)n1cc(-c2cncc(OC)c2)nn1 (stereo partly drawn) : reported logD at 24 h = 1.9

Record summary for CC(n1cc(-c2cncc(N(C)C)c2)nn1)n1ccc(N2CCC[C@@H](NCC3CCC3)C2)cc1=O (stereo partly drawn) : reported logD at 24 h = 1.79

Record summary for COc1cncc(-c2cn(Cn3ncc(N4CCC[C@@H](NCC5CCC5)C4)cc3=O)nn2)c1 : reported logD at 24 h = 1.06

Record summary for COc1cncc(-c2cn(Cc3ccc(C4CCCC(NCC5CCC5)C4)nn3)nn2)c1 (stereo not drawn) : reported logD at 24 h = 1.55

Record summary for COc1cnnc(-c2cn(C(C)n3ccc(N4CCC[C@@H](NCC5CCC5)C4)cc3=O)nn2)c1 (stereo partly drawn) : reported logD at 24 h = 0.62

Record summary for COc1cc(-c2cn(Cc3ccc(N4CCC[C@@H](NCC5CCC5)C4)nn3)nn2)c2cn[nH]c2c1 : reported logD at 24 h = 1.89

Record summary for COc1cc(-c2cn(C(C)n3ccc(N4CCC[C@@H](NCC5CCC5)C4)cc3=O)nn2)c2cn[nH]c2c1 (stereo partly drawn) : reported logD at 24 h = 2.13

Record summary for COc1cccc(-c2cn(C(C)n3ccc(N4CCC[C@@H](NCC5CCC5)C4)cc3=O)nn2)c1 (stereo partly drawn) : reported logD at 24 h = 2.22

Record summary for COc1cc(-c2cn(Cc3ccc(N4CCC[C@@H](NC5CCC5)C4)nn3)nn2)c2cn[nH]c2c1 : reported logD at 24 h = 1.71
